procedure_summary: AUC (0 to 24 hrs) in ICR mouse at 10 mg/kg, po
Assay type: ADME, organism-based
Parameters: time < 24 hr, dose 10 mg/kg, route oral
condition_label: in vivo
property_label: AUC(0-t) at 24 h

Query block: Which AUC(0-t) at 24 h is listed for CC(C)(O)CCCn1c(Cn2nc(S(C)(=O)=O)c3ccncc32)nc2cc(Cl)ccc21 ?
Result block: 0.809 µg·h/mL

====

procedure_summary: Tmax in ICR mouse at 10 mg/kg, po
Assay type: ADME, organism-based
condition_label: in vivo
property_label: Tmax (min)
Express it in min; write the number only.

Query block: Which Tmax is listed for CC(C)(O)CCCn1c(Cn2nc(S(C)(=O)=O)c3ccncc32)nc2cc(Cl)ccc21 ?
Result block: 15
